Biological target: Gelatinase-72KD (Homo sapiens, UniProt P08253)
Sequence (P08253 110-660): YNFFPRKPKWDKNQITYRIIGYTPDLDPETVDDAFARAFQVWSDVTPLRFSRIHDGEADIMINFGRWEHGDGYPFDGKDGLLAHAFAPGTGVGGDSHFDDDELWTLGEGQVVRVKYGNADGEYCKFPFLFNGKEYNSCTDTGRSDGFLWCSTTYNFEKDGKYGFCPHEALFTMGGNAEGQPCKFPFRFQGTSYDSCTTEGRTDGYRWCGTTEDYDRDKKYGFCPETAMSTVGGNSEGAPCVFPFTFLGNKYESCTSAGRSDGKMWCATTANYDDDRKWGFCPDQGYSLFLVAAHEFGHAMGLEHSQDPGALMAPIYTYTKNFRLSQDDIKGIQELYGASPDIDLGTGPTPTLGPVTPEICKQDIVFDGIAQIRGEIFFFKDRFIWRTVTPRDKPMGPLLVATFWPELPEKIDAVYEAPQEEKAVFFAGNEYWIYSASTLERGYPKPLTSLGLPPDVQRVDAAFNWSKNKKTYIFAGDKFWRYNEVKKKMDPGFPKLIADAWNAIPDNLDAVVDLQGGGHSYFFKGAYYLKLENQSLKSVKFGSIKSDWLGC
Test: Enzyme inhibition assay with fluorogenic peptide substrate, gelatinase-72KD
Format: biochemical
Conditions: true Ki from plot of Ki (app) vs. [S]
Readout type: Ki (nM)
Numbers only, in nM.

Report Ki for each item below.
1. CC(C)(S)[C@@H](NC(=O)[C@H](CCCc1ccc(Cl)cc1)CC(=O)NO)C(N)=O
2. CNC(=O)[C@H](NC(=O)[C@H](CCCc1ccc(Cl)cc1)CC(=O)NO)C(C)(C)SC
3. CNC(=O)[C@H](NC(=O)[C@H](CCCc1ccc(Cl)cc1)CC(=O)NO)C(C)(C)S(C)(=O)=O

Result block:
[0.027, 0.005, 0.005]

###

Target: Collagenase
Experiment: Enzyme inhibition assay with fluorogenic peptide substrate, collagenase
Format: biochemical
Settings: Ki (app) assumed to approximate true Ki
Can you tell me Ki for the items I'm about to list?
Answers are plain numbers, in nM.

Report Ki for each item below.
1. CC(C)(S)[C@@H](NC(=O)[C@H](CCCc1ccc(Cl)cc1)CC(=O)NO)C(N)=O
2. CNC(=O)[C@H](NC(=O)[C@H](CCCc1ccc(Cl)cc1)CC(=O)NO)C(C)(C)SC
3. CNC(=O)[C@H](NC(=O)[C@H](CCCc1ccc(Cl)cc1)CC(=O)NO)C(C)(C)S(C)(=O)=O

Result block:
[122, 26.3, 20.7]
